Ref: patent US10336702B2

target: p-Akt3 in WM115 cells (Homo sapiens, UniProt Q9Y243); construct: SureFire assays to detect cellular p-Akt1, p-Akt2 and p-Akt3 levels in WM115 cells (Akt2/3) and LNCaP cells (Akt1); endogenous in cells; host or cells: WM115 (ECACC 91061232), insulin-stimulated; experiment: Phospho-Akt cellular SureFire assay, p-Akt3 in WM115 cells; type: cell-based; details: insulin stimulated, read-out: Biological Assay 2 IC50 (nM) Akt3 WM115
Sequence (Q9Y243 whole entry): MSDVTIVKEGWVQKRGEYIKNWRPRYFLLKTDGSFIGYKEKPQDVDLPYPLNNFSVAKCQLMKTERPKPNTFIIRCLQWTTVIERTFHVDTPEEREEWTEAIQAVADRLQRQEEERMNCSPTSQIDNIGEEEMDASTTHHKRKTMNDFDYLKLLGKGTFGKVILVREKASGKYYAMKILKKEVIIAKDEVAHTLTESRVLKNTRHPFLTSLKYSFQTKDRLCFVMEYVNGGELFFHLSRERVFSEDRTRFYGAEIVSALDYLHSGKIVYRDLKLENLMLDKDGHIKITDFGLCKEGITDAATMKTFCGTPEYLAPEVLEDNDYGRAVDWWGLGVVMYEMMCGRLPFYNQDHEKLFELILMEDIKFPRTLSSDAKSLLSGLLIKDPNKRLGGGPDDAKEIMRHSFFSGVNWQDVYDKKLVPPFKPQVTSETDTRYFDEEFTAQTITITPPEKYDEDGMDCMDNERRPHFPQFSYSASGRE
Sorting guide: entries reporting IC50 beneath 200 nM go in the yes (1) pile, the rest go in the no (0) pile.

>>> print(df.to_string())
                                   compound                           target_of_assay    label
0  CCC(=O)N(C)[C@H]1CC[C@H](CC(=O)Nc2cc(-c3ccccc3F)c(-c3ccc([C@]4(N)C[C@](C)(O)C4)cc3)cn2)CC1  p-Akt3 in WM115 cells (Homo sapiens, UniProt Q9Y243)  yes (1)

Strictly below 200 nM: is that where IC50 of `COC(=O)N(C)[C@H]1CC[C@H](CC(=O)Nc2cc(-c3ccccn3)c(-c3ccc(C4(N)CCC4)cc3)cn2)CC1` sits?
no (0)

Could you please tell me whether IC50 recorded for `CC(C)(N)c1ccc(-c2ncc(NC(=O)C[C@H]3CC[C@H](N4CCCCC4=O)CC3)cc2-c2ccccc2)cc1` is less than 200 nM?
no (0)

Determine whether this compound shows IC50 lower than 200 nM (ties excluded): `CCC(=O)N(C(C)C)[C@H]1CC[C@H](CC(=O)Nc2cc(-c3ccccc3)c(-c3ccc([C@]4(N)C[C@](C)(O)C4)cc3)nn2)CC1`
yes (1)

Lab note: confirm whether the reported IC50 for this compound is below 200 nM, equality not counting. compound: `COC(=O)N(C(C)C)[C@H]1CC[C@H](CC(=O)Nc2cc(-c3ccccc3)c(-c3ccc([C@]4(N)C[C@](C)(O)C4)cc3)nn2)CC1`
yes (1)

Is the reported IC50 for COC(=O)N(C)[C@H]1CC[C@H](C(C)C(=O)Nc2cnc(-c3ccc(C4(N)CCC4)cc3)c(-c3ccccc3)c2)CC1 (relative stereo) strictly below 200 nM?
no (0)
